Record form. Attribute: Activity. Fill in for each entry.
Measured On: von Hippel-Lindau disease tumor suppressor/Tyrosine-protein phosphatase non-receptor type 11 (Homo sapiens, UniProt Q06124+P40337)
Sequence (P40337 whole entry partner): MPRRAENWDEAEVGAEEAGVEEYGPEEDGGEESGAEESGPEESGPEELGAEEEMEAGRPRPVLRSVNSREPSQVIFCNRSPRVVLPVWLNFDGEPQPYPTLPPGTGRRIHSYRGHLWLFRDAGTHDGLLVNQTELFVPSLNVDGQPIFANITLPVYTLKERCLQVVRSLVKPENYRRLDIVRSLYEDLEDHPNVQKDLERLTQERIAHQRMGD
Sequence (Q06124 2-593 limits assumed): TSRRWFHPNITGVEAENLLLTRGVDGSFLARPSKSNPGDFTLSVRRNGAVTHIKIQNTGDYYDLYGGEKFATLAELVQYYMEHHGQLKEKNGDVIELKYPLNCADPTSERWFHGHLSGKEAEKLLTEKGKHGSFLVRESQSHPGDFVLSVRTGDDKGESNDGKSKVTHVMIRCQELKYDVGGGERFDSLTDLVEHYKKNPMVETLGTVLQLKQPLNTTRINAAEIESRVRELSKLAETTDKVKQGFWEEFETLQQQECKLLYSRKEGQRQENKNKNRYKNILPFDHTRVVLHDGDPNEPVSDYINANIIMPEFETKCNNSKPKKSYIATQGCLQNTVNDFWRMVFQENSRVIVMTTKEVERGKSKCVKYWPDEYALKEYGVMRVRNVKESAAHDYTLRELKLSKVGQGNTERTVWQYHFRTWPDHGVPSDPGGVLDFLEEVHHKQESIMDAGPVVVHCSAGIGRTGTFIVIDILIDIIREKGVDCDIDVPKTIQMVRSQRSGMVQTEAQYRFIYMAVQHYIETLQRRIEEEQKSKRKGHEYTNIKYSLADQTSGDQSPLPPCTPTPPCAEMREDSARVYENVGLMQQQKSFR
Experiment: Protac activity at VHL1/SHP2 in human MV4-11 cells assessed as induction of SHP2 degradation at 0.1 uM measured after 24 hrs by Western blot analysis relative to control
Format: cell-based
Number only, in %; omit the unit.

// query Return value of Activity for input Cc1ncsc1-c1ccc([C@H](C)NC(=O)[C@@H]2C[C@@H](O)CN2C(=O)[C@@H](NC(=O)CCCCCCCCCCCCCCC(=O)Nc2cccc(Sc3ncc(N4CCC(C)(N)CC4)nc3N)c2Cl)C(C)(C)C)cc1 (single isomer, unassigned) , no commentary.
// result 8

// query Give Activity for the following compound: Cc1ncsc1-c1ccc([C@H](C)NC(=O)[C@@H]2C[C@@H](O)CN2C(=O)[C@@H](NC(=O)CCCCN2CCN(CCCCNC(=O)CCC(=O)Nc3cccc(Sc4ncc(N5CCC(C)(N)CC5)nc4N)c3Cl)CC2)C(C)(C)C)cc1 (single isomer, unassigned)
// result 9

// query Report Activity for Cc1ncsc1-c1ccc([C@H](C)NC(=O)[C@@H]2C[C@@H](O)CN2C(=O)[C@@H](NC(=O)CCCCCCCCCCCN2CCN(CC(=O)Nc3cccc(Sc4ncc(N5CCC(C)(N)CC5)nc4N)c3Cl)CC2)C(C)(C)C)cc1 (single isomer, unassigned)
// result 6

// query Note down Activity recorded for Cc1ncsc1-c1ccc([C@H](C)NC(=O)[C@@H]2C[C@@H](O)CN2C(=O)[C@@H](NC(=O)CCOCCOCCOCCNC(=O)CCC(=O)Nc2cccc(Sc3ncc(N4CCC(C)(N)CC4)nc3N)c2Cl)C(C)(C)C)cc1 (single isomer, unassigned)
// result 85
